# Tested on: 171881-019-R-J1-PDC tumor spheroid viability
# assay_comment: Anticancer human tumor 171881-019-R-J1-PDC patient-derived invasive breast carcinoma cell line growth inhibition [PI3K]
# condition_info: second compound 0.0316 µM; first compound 10 µM; stronger effect = lower value; spheroids with HUVEC and MSC
readout: viability, T/C

Study these solved cases before continuing.
molecule	viability, T/C
C#Cc1c(F)ccc2cc(O)cc(-c3ncc4c(N5CC6CCC(C5)N6)nc(OCC56CCCN5CC(F)C6)nc4c3F)c12 (stereo not drawn) + Cc1nc(NC(=O)N2CCCC2C(N)=O)sc1-c1ccnc(C(C)(C)C(F)(F)F)c1	20%
Cn1ncc(Cl)c1-c1cc(C(=O)NC(CN)Cc2cccc(F)c2)sc1Cl (stereo not drawn) + Cc1nc(NC(=O)N2CCCC2C(N)=O)sc1-c1ccnc(C(C)(C)C(F)(F)F)c1	4.55%

# ---- query molecule ----
Name the recorded viability, T/C for CC(Cn1ccc(-c2ccc(C#N)c(Cl)c2)n1)NC(=O)c1cc(C(C)O)[nH]n1 (stereo not drawn) + CC(Nc1ccc2c(c1)OCCn1cc(N3C(=O)OCC3C(F)F)nc1-2)C(N)=O .
35.1%

---

# System: 171881-019-R-J1-PDC tumor spheroid viability
# assay_comment: Anticancer human tumor 171881-019-R-J1-PDC cell line growth inhibition [PI3K];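 also: spheroids exposed to compound for 7 days before viability read; 100% = DMSO vehicle-treated spheroids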
# condition_info: second compound 10 µM; first compound 3.16 µM; stronger effect = lower value; spheroids with HUVEC and MSC
Output: class label from viability, T/C. Mapping: lower level = under 4%, middle level = from 4% up to 30%, upper level = 30% and over

molecule	group_label
Cn1nccc1Nc1nccc(-c2ccn(C(CO)c3ccc(Cl)c(F)c3)c(=O)c2)n1 (centres undefined) + Cc1nc(NC(=O)N2CCCC2C(N)=O)sc1-c1ccnc(C(C)(C)C(F)(F)F)c1	lower level
CNC(=O)c1ccc(N2C(=S)N(c3ccc(C#N)c(C(F)(F)F)c3)C(=O)C2(C)C)cc1F + CC(Nc1ncnc2nc[nH]c12)c1cc2cccc(Cl)c2c(=O)n1-c1ccccc1	upper level
C#Cc1c(F)ccc2cc(O)cc(-c3ncc4c(N5CC6CCC(C5)N6)nc(OCC56CCCN5CC(F)C6)nc4c3F)c12 (centres undefined) + Cc1nc(NC(=O)N2CCCC2C(N)=O)sc1-c1ccnc(C(C)(C)C(F)(F)F)c1	lower level
C=CC(=O)N1CCN(c2nc(=O)n(-c3c(C)ccnc3C(C)C)c3nc(-c4c(O)cccc4F)c(F)cc23)C(C)C1 (centres undefined) + Cc1nc(NC(=O)N2CCCC2C(N)=O)sc1-c1ccnc(C(C)(C)C(F)(F)F)c1	middle level
C[C@@H](NC(=O)c1ncnc(N)c1Cl)c1ncc(C(=O)Nc2cc(C(F)(F)F)c(Cl)cn2)s1 + CC(Nc1ncnc2nc[nH]c12)c1cc2cccc(Cl)c2c(=O)n1-c1ccccc1	upper level
CNC(=O)c1ccc(N2C(=S)N(c3ccc(C#N)c(C(F)(F)F)c3)C(=O)C2(C)C)cc1F + Cc1nc(NC(=O)N2CCCC2C(N)=O)sc1-c1ccnc(C(C)(C)C(F)(F)F)c1	lower level
CC(Cn1ccc(-c2ccc(C#N)c(Cl)c2)n1)NC(=O)c1cc(C(C)O)[nH]n1 (centres undefined) + Cc1nc(NC(=O)N2CCCC2C(N)=O)sc1-c1ccnc(C(C)(C)C(F)(F)F)c1	lower level
CC1(C)CCC(Nc2ncc(C(F)(F)F)c(-c3c[nH]c4c(P(C)(C)=O)c(C#N)ccc34)n2)CN1 (centres undefined) + CC(Nc1ncnc2nc[nH]c12)c1cc2cccc(Cl)c2c(=O)n1-c1ccccc1	upper level
Cn1nccc1Nc1nccc(-c2ccn(C(CO)c3ccc(Cl)c(F)c3)c(=O)c2)n1 (centres undefined) + CC(Nc1ncnc2nc[nH]c12)c1cc2cccc(Cl)c2c(=O)n1-c1ccccc1	middle level
CCCS(=O)(=O)Nc1ccc(F)c(C(=O)c2c[nH]c3ncc(-c4ccc(Cl)cc4)cc23)c1F + CC(Nc1ncnc2nc[nH]c12)c1cc2cccc(Cl)c2c(=O)n1-c1ccccc1	upper level

For Cn1ncc(Cl)c1-c1cc(C(=O)NC(CN)Cc2cccc(F)c2)sc1Cl (centres undefined) + Cc1nc(NC(=O)N2CCCC2C(N)=O)sc1-c1ccnc(C(C)(C)C(F)(F)F)c1 , which viability, T/C bin applies?
lower level

For CCCS(=O)(=O)Nc1ccc(F)c(C(=O)c2c[nH]c3ncc(-c4ccc(Cl)cc4)cc23)c1F + Cc1nc(NC(=O)N2CCCC2C(N)=O)sc1-c1ccnc(C(C)(C)C(F)(F)F)c1 , which viability, T/C bin applies?
middle level

For CC1(C)CCC(CN2CCN(c3ccc(C(=O)NS(=O)(=O)c4ccc(NCC5CCOCC5)c([N+](=O)[O-])c4)c(Oc4cnc5[nH]ccc5c4)c3)CC2)=C(c2ccc(Cl)cc2)C1 + Cc1nc(NC(=O)N2CCCC2C(N)=O)sc1-c1ccnc(C(C)(C)C(F)(F)F)c1 , which viability, T/C bin applies?
lower level

For CC(Cn1ccc(-c2ccc(C#N)c(Cl)c2)n1)NC(=O)c1cc(C(C)O)[nH]n1 (centres undefined) + CC(Nc1ncnc2nc[nH]c12)c1cc2cccc(Cl)c2c(=O)n1-c1ccccc1 , which viability, T/C bin applies?
upper level

---

# Test system: 171881-019-R-J1-PDC tumor spheroid viability
# assay_comment: Anticancer human tumor 171881-019-R-J1-PDC cell line growth inhibition [PI3K]; active means viability on the fitted dose curve at most 10% of control; inactive means the rest;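 also: spheroids exposed to compound for 7 days before viability read; 100% = DMSO vehicle-treated spheroids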
# condition_info: second compound 0.316 µM; first compound 0.1 µM; spheroids with HUVEC and MSC
Response enum: 1.0 for active, 0.0 for inactive

As a guide, the following entries are already answered.
compound	system_name	group_label
CCCS(=O)(=O)Nc1ccc(F)c(C(=O)c2c[nH]c3ncc(-c4ccc(Cl)cc4)cc23)c1F + COc1c(OCCCN2CCOCC2)ccc2c3n(c(=NC(=O)c4cnc(N)nc4)nc12)CCN3	171881-019-R-J1-PDC tumor spheroid viability	1.0
CNC(=O)c1ccc(N2C(=S)N(c3ccc(C#N)c(C(F)(F)F)c3)C(=O)C2(C)C)cc1F + CC(Nc1ccc2c(c1)OCCn1cc(N3C(=O)OCC3C(F)F)nc1-2)C(N)=O	171881-019-R-J1-PDC tumor spheroid viability	0.0
CC(Cn1ccc(-c2ccc(C#N)c(Cl)c2)n1)NC(=O)c1cc(C(C)O)[nH]n1 (stereo unspecified) + CC(Nc1ncnc2nc[nH]c12)c1cc2cccc(Cl)c2c(=O)n1-c1ccccc1	171881-019-R-J1-PDC tumor spheroid viability	0.0

What is the recorded call for this compound in the test? Cn1ncnc1[C@H]1c2n[nH]c(=O)c3cc(F)cc(c23)N[C@@H]1c1ccc(F)cc1 + CC(Nc1ncnc2nc[nH]c12)c1cc2cccc(Cl)c2c(=O)n1-c1ccccc1
0.0

What is the recorded call for this compound in the test? CCCS(=O)(=O)Nc1ccc(F)c(C(=O)c2c[nH]c3ncc(-c4ccc(Cl)cc4)cc23)c1F + CC(Nc1ncnc2nc[nH]c12)c1cc2cccc(Cl)c2c(=O)n1-c1ccccc1
0.0

What is the recorded call for this compound in the test? CNC(=O)c1ccc(N2C(=S)N(c3ccc(C#N)c(C(F)(F)F)c3)C(=O)C2(C)C)cc1F + Cc1nc(NC(=O)N2CCCC2C(N)=O)sc1-c1ccnc(C(C)(C)C(F)(F)F)c1
0.0

What is the recorded call for this compound in the test? Cn1ncc(Cl)c1-c1cc(C(=O)NC(CN)Cc2cccc(F)c2)sc1Cl (stereo unspecified) + Cc1nc(NC(=O)N2CCCC2C(N)=O)sc1-c1ccnc(C(C)(C)C(F)(F)F)c1
0.0

What is the recorded call for this compound in the test? CCCS(=O)(=O)Nc1ccc(F)c(C(=O)c2c[nH]c3ncc(-c4ccc(Cl)cc4)cc23)c1F + Cc1nc(NC(=O)N2CCCC2C(N)=O)sc1-c1ccnc(C(C)(C)C(F)(F)F)c1
0.0

What is the recorded call for this compound in the test? CC(Cn1ccc(-c2ccc(C#N)c(Cl)c2)n1)NC(=O)c1cc(C(C)O)[nH]n1 (stereo unspecified) + Cc1nc(NC(=O)N2CCCC2C(N)=O)sc1-c1ccnc(C(C)(C)C(F)(F)F)c1
0.0

What is the recorded call for this compound in the test? Cn1ncnc1[C@H]1c2n[nH]c(=O)c3cc(F)cc(c23)N[C@@H]1c1ccc(F)cc1 + CC(Nc1ccc2c(c1)OCCn1cc(N3C(=O)OCC3C(F)F)nc1-2)C(N)=O
0.0

What is the recorded call for this compound in the test? Cn1nccc1Nc1nccc(-c2ccn(C(CO)c3ccc(Cl)c(F)c3)c(=O)c2)n1 (stereo unspecified) + Cc1nc(NC(=O)N2CCCC2C(N)=O)sc1-c1ccnc(C(C)(C)C(F)(F)F)c1
0.0

---

# viability, T/C values compiled below
# System: 171881-019-R-J1-PDC tumor spheroid viability
# assay_comment: Anticancer human tumor 171881-019-R-J1-PDC cell line growth inhibition [PI3K];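 also: spheroids exposed to compound for 7 days before viability read; 100% = DMSO vehicle-treated spheroids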
# condition_info: second compound 1 µM; first compound 0.949 µM; stronger effect = lower value; spheroids with HUVEC and MSC
Expressed in %, but write only the number.

Study these solved cases before continuing.
compound	unit_symbol	result
Cn1cnc2c(F)c(Nc3ccc(Br)cc3Cl)c(C(=O)NOCCO)cc21 + Cc1nc(NC(=O)N2CCCC2C(N)=O)sc1-c1ccnc(C(C)(C)C(F)(F)F)c1	%	6.73
Cn1cnc2c(F)c(Nc3ccc(Br)cc3Cl)c(C(=O)NOCCO)cc21 + CC(Nc1ncnc2nc[nH]c12)c1cc2cccc(Cl)c2c(=O)n1-c1ccccc1	%	34.6

Name the recorded viability, T/C for Cn1cnc2c(F)c(Nc3ccc(Br)cc3Cl)c(C(=O)NOCCO)cc21 + COc1c(OCCCN2CCOCC2)ccc2c3n(c(=NC(=O)c4cnc(N)nc4)nc12)CCN3 .
0.79

Name the recorded viability, T/C for Cn1cnc2c(F)c(Nc3ccc(Br)cc3Cl)c(C(=O)NOCCO)cc21 + CC(Nc1ccc2c(c1)OCCn1cc(N3C(=O)OCC3C(F)F)nc1-2)C(N)=O .
2.91
